B1: DnaJ homolog subfamily C member 2, residues 451 to 503; numbered along this chain, Q99543 (parent)
chain: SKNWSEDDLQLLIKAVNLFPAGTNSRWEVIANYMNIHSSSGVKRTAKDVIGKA

# Variants of: B1
# Test Name: abundance fitness (aPCA) (normalised: wild type 0, dead -1); higher = more abundant; growth selection in yeast, the domain comes from the species named
# Conditions: Homo sapiens
abundance fitness values for the variants below.

# Mutation Notation, abundance fitness
rows = [
    ("G51C", -0.142),
    ("S38D", -0.61),
    ("N32G", -0.2),
    ("F19W", -0.215),
    ("N24F", -0.101),
    ("S40H", -0.125),
    ("D48N", -0.623),
    ("S25N", -0.384),
    ("I13A", 0.14),
    ("F19I", -0.29),
    ("D7G", -0.015),
    ("E6T", -0.175),
    ("D8I", -0.534),
    ("V16A", -0.164),
    ("Q10E", -0.054),
    ("N3S", -0.234),
    ("K43L", -0.067),
    ("A21K", -0.018),
    ("V29E", -0.103),
    ("I50T", -0.267),
    ("I36T", -0.007),
    ("K43N", -0.025),
    ("L12D", -0.97),
    ("L9Q", 0.145),
    ("L18V", -0.108),
    ("W4V", -0.908),
    ("S1Y", -0.37),
    ("W4C", -0.704),
    ("E6Y", -0.186),
    ("A53V", -0.035),
    ("V49Q", -0.744),
    ("N17V", -0.161),
    ("D7C", -0.889),
    ("V16C", -0.186),
    ("I13K", 0.053),
    ("V49I", -0.069),
    ("L11Q", -0.632),
    ("V29K", -0.113),
    ("A15P", -0.724),
    ("D8K", -0.422),
    ("G41C", -0.103),
    ("K43W", -0.259),
    ("A21F", -0.096),
    ("I50D", -0.224),
    ("V29Y", -0.166),
    ("G41W", -0.645),
]

// provenance: the Human Domainome abundance scans (Beltran et al. 2025)
